FYI, the data here is from patent US20180258175A1.

- target_or_system: T1, human CD115 extracellular domain (Sino Biological 10161-H08H) (human, UniProt P07333 20-517)
- T1 construct: extracellular domain; bought recombinant protein; also called huCD115; hu-CD115
- protocol_text: SPR ProteOn, mAb amine coupled, Hu CD115 analyte
measured_endpoint: koff (s⁻¹)
Numeric only. Scale: s⁻¹

Prompt line: Given the entry CCK423A-IgG2κ (fully human) (antibody, V domains shown, also called Human IgG2κ) VH: QVQLEQSGAEVKRPGASVKVSCKASGYTFTGYYMHWVRQAPGQGLEWMGWINPNRGDTNYAQKFQGRVTMTRDTSISTAYMELSRLRSDDTAVYYCARDLEGGGPFDYWGQGTLVTVSS VL: DIVMTQTPLSLPVTPGEPASISCRSSQSLLDSDDGNTYLDWYLQKPGQSPQLLIYTLSYRASGVPDRFSGSGSGTDFTLKISRVEAEDVGVYYCMQRIEFPSTFGQGTRLEIK , report its measured koff.
Response line: 0.014

Prompt line: Next record, please: CCK423A-IgG4κ (fully human) (antibody, V domains shown, also called Human IgG4κ; CCK423A-IgG4K) VH: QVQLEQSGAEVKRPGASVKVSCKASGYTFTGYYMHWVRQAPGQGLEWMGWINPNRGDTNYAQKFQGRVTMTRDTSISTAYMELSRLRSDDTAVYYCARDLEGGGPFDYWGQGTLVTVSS VL: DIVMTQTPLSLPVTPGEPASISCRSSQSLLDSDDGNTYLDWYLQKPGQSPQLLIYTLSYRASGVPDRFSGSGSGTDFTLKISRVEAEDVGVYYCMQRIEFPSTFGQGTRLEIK
Response line: 0.015

Prompt line: Next record, please: CCK423A-IgG1κ (fully human) (antibody, V domains shown, also called Human IgG1κ; CCK423A-I IgG1κ) VH: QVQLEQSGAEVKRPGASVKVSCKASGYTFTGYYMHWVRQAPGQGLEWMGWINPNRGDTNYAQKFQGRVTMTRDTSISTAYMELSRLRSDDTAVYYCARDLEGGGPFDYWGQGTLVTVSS VL: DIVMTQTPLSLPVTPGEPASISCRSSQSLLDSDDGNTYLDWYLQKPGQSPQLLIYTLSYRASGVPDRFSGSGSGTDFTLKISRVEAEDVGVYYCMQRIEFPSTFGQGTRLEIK
Response line: 0.017

Prompt line: Next record, please: CCK-423A (antibody, V domains shown, AlivaMab chimeric IgG, human kappa LC; also called AlivaMab CCK423A; AlivaMab Mouse CCK423A) VH: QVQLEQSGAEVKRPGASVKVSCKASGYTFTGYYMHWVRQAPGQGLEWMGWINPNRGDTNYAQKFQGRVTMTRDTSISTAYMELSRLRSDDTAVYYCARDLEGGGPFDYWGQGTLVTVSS VL: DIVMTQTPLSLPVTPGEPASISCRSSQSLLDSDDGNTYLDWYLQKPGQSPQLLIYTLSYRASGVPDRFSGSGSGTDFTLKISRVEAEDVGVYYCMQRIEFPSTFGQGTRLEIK
Response line: 0.015
